# growth annotations
# System: CAKI-1 renal
# procedure_summary: NCI-60 one-dose screen, 48 h (100 = growth as untreated, 0 = no growth, -100 = all killed)
# test_parameters: 10 µM unless noted
Compounds without any hit were thinned out: in the full panel of roughly 83,000, 20% have a hit.
The reply should be a number in %, with the unit left off.

COc1ccccc1/C=C/C1=C(C)CCC(c2ccccc2OC)C1C (centres undefined): 2.23
COc1ccc(NC(=O)CSc2oc(-c3ccccc3)nc2S(=O)(=O)c2ccc(Cl)cc2)c(OC)c1: 86.1
C#Cc1cccc(Nc2nc(Cl)nc3cc(NC(=O)CCl)ccc23)c1: -96.9
N/C(=N\c1nc2ccccc2s1)NC(=O)Nc1ccccc1: 44.3
CC(C)(C)n1cc(-c2ccnc(NCCNS(=O)(=O)c3ccc(C(F)(F)F)cc3)c2)c(-c2ccccc2)n1: 90.6
O=c1[nH]c(CN2CCN(c3ccccc3)CC2)nc2c(Br)cc(Br)cc12: 99.7
CC(C)(C)[C@H](OCc1cn([C@H]2C[C@@H](O)[C@@H](CO)O2)c(=O)[nH]c1=O)c1ccc(C#Cc2ccccc2)cc1[N+](=O)[O-]: 79.3
O=C(Nc1ccc(Oc2cccc(F)c2)c(Cl)c1)c1cnccn1: 25.2

Challenge: What is its growth for CAKI-1 renal? Entry: O=c1cc(-c2nccc3c2[nH]c2ccccc23)c2cc(Cl)ccc2o1
Response given: 54.6

----------
# Test system: KM12 colon
# procedure_summary: NCI-60 one-dose screen, 48 h (100 = growth as untreated, 0 = no growth, -100 = all killed)
# test_parameters: 10 µM unless noted
This is part of a sample that, as a whole, favours compounds with a hit. Of some 83,000 tested, about 20% had one in any assay.
measured_metric: growth (%)
The reply should be a number in %, with the unit left off.

Below, 3 compounds whose answers are already recorded.
COC(=O)[C@H](C)NC(=O)[C@@H]1CCCN1C(=O)CNC(=O)[C@H](C)N: 104
COC(=O)[C@H](C)NC(=O)c1ccc(NC(=O)c2[nH]c(C)c(Cl)c2Cl)c(OCCN)c1: 92.5
COC(=O)c1c(C)nc(C)c2c1C(=O)C(Br)=C(NCCN1CCOCC1)C2=O: 96.9

Challenge: Need growth of COc1cccc(NC(=O)c2sc3nc(C)c(C(=O)c4ccccc4)cc3c2N)c1 , thanks.
Response given: 88

Challenge: Need growth of CC/C(=C(/c1ccc(Cl)cc1)c1ccc(OCCN2CCCCCC2)cc1)c1ccccc1 , thanks.
Response given: 55

----------
# growth annotations
# Tested on: NCI/ADR-RES ovarian
# procedure_summary: NCI-60 one-dose screen, 48 h (100 = growth as untreated, 0 = no growth, -100 = all killed)
# test_parameters: 10 µM unless noted
About 83,000 compounds went through this panel and 20% of them were active in at least one assay; those are over-represented in the sample as a whole.
The reply should be a number in %, with the unit left off.

Below, 2 molecules whose answers are already recorded.
CCCCCCCCCCCCCCCCCCOc1ccccc1CC(=O)OCC[N+]1(C)CCCCC1: 92.3
CCOC(=O)c1cnc2sc(-c3ccc(OC)cc3)nc2c1Cl: 90

Challenge: Need growth of Nc1nc(N)c2c(n1)NC(c1ccc3c(c1)OCO3)CC(c1cccc(Nc3ccncc3)c1)=N2 (stereo not drawn) , thanks.
Response given: 107

Challenge: Need growth of O=C(/C=C/c1ccco1)c1ccc(Nc2ccnc3cc(Cl)ccc23)cc1 , thanks.
Response given: 73.9

Challenge: Need growth of Nc1n[nH]c2cccc(C#Cc3cccc(C(=O)Nc4ccc(Cl)c(C(F)(F)F)c4)c3)c12 , thanks.
Response given: 62.2

Challenge: Need growth of COc1cc2cc(Oc3ccc(NC(=O)Nc4ccc(F)c(C(F)(F)F)c4)cc3)c(C)nc2cc1OCCN1CCCCC1 , thanks.
Response given: 74.7

Challenge: Need growth of CCN(CC)CCOc1ccc(/C(=C(\C)Cc2ccc(OC)cc2)c2ccc(O)cc2)cc1 , thanks.
Response given: 53.1

Challenge: Need growth of [2H]C([2H])([2H])Oc1ccc(/C=C/C(=O)/C=C(/C=C/c2ccc(OC([2H])([2H])[2H])c(OC([2H])([2H])[2H])c2OC([2H])([2H])[2H])OB(F)F)c(OC([2H])([2H])[2H])c1OC([2H])([2H])[2H] , thanks.
Response given: 54.6

----------
# Tested on: UACC-62 melanoma
# procedure_summary: NCI-60 one-dose screen, 48 h (100 = growth as untreated, 0 = no growth, -100 = all killed)
# test_parameters: 10 µM unless noted
The panel holds about 83,000 compounds, 20% with a hit somewhere; the sample as a whole holds those more often.
Note to self: class = bucket of growth, per band A (below 30%), band B (30% to below 90%), band C (90% or more)

Cc1nc2ccccc2c(/C=C/c2ccc(Cl)cc2)c1C(=O)/C=C/c1ccccc1: band A

Challenge: Categorize the following entry: COc1ccc(C(=O)/C=C/Nc2cc(-c3ccccc3)nn2-c2ccccc2)cc1
Response given: band B

Challenge: Categorize the following entry: Oc1cccc(-c2nc(-c3n[nH]c(=S)n3-c3ccccc3)cc3c2[nH]c2ccccc23)c1
Response given: band B

Challenge: Categorize the following entry: O=c1c(/C=C/c2c(O)ccc3ccccc23)nnc2sc(-c3cccc([N+](=O)[O-])c3)nn12
Response given: band B

Challenge: Categorize the following entry: O=C(O)/C=C\C(=O)Nc1ccc2c(c1)Cc1cc(F)ccc1-2
Response given: band C

Challenge: Categorize the following entry: CCCCCCCCCCCCCC[n+]1ccc2c(C)c3c(c(C)c2c1)c1cc(O)ccc1n3CC
Response given: band A

Challenge: Categorize the following entry: Cc1ccc(C(F)(F)F)cc1N1CCN(C(=O)[C@H]2C[C@H]2c2ccc(C(F)(F)F)nc2)CC1
Response given: band B

Challenge: Categorize the following entry: CCCCC1=C(Br)C(=O)c2ncccc2C1=O
Response given: band C

Challenge: Categorize the following entry: CCOC(=O)C1=C(c2ccccc2)N=C2SC=C(c3cccc([N+](=O)[O-])c3)N2C1c1ccc(O)cc1 (stereo not given)
Response given: band C

Challenge: Categorize the following entry: C=CCNc1nc(O)c(/C=C2\C=Nc3ncccc32)s1
Response given: band A

Challenge: Categorize the following entry: Clc1ccc2c(NCCCn3cnc4c(N5CCCC5)nc(Cl)nc43)ccnc2c1
Response given: band C

----------
# System: NCI/ADR-RES ovarian
# procedure_summary: NCI-60 one-dose screen, 48 h
# test_parameters: 10 µM unless noted
About 83,000 compounds went through this panel and 20% of them were active in at least one assay; those are over-represented in the sample as a whole. Activity calls are given as the source filed them. The calls were made as follows: active = growth percent below 10; inactive = the rest.
Hi there, use one of these labels in your reply, thanks! T for active, F for inactive

Previously resolved entries follow.
c1ccc(Cn2cc3c(c2)-c2nc(Nc4ccccc4)ncc2CC3)cc1: F
C(=N\Nc1nnc2n1N=C(c1ccccc1)CS2)/c1ccc(OCc2ccccc2)cc1: F
CC1(C)CCC[C@]23C(=O)O[C@](O)(C(=O)C4=C[C@@](C)(/C=C/CCCc5ccc6ccc7cccc8ccc5c6c78)CC[C@@]42O)[C@@H]13: T
CCOC(=O)/C(=C\c1ccccc1Cl)P(=O)(OCC)OCC: F
CCOC(=O)CCC(=O)P(=O)(O)O: F
O=C(O)c1cc2ccccc2s1: F
CNC(=O)c1cc(Oc2ccc3nc(NC(=O)c4cc(C(F)(F)F)cc(C(F)(F)F)c4)sc3c2)ccn1: F
CN1CC(c2ccccc2)C(C(=O)c2ccc(Br)cc2)C12C(=O)Nc1ccccc12 (stereo not given): F
O=C1NCCS(=O)(=O)/C1=C\C=C\c1cccc(C(F)(F)F)c1: T

Now, please, on to the next molecule.
Challenge: Per the assay record, what outcome was assigned to c1ccc(-c2cn3nc(-c4c[nH]c5ccccc45)sc3n2)cc1 ?
Response given: F

----------
# System: LOX IMVI melanoma
# procedure_summary: NCI-60 one-dose screen, 48 h
# test_parameters: 10 µM unless noted
Compounds without any hit were thinned out: in the full panel of roughly 83,000, 20% have a hit. The source made the active and inactive calls. Rule for the calls: active = growth percent below 10; inactive = the rest.
Hi there, use one of these labels in your reply, thanks! 1 = active, -1 = inactive

Previously resolved entries follow.
CCN=c1sc2c(n1NC(=O)c1cc3ccc1CCc1ccc(cc1)CC3)C(=O)c1ccccc1C2=O: 1
COC(=O)c1nc(-c2ccccc2)oc1S(=O)(=O)N1CCN(c2ccc(OC)cc2)CC1: -1
CN1CCN(Cc2ccc(NC(=O)c3cc(C#Cc4cnc(N)c5ncccc45)n(C)n3)cc2C(F)(F)F)CC1: -1

Challenge: Per the assay record, what outcome was assigned to COC1CC(O)C2=C(CC3C(/C(C)=C\CC=C(C)C)CCC3(C)O2)C1=O (centres undefined) ?
Response given: -1

Challenge: Per the assay record, what outcome was assigned to Oc1ccc(C2OCCO2)c2cccnc12 ?
Response given: -1

Challenge: Per the assay record, what outcome was assigned to COC(=O)c1c(C)nc(C)c2c1C(=O)C(Br)=C(NCCCCO)C2=O ?
Response given: -1

Challenge: Per the assay record, what outcome was assigned to Nc1ncc(-c2ccc3ncnc(N4CCc5ccc(Cl)cc54)c3c2)cn1 ?
Response given: 1

Challenge: Per the assay record, what outcome was assigned to C=CCn1c(SCC(=O)Nc2ccc(C(=O)/C=C/c3cc(OC)c(OC)c(OC)c3)cc2)nnc1-c1cc(-c2ccc(S(N)(=O)=O)cc2)nc2ccccc12 ?
Response given: -1

Challenge: Per the assay record, what outcome was assigned to CNC(=O)c1cc(Oc2cccc3nc(NC(=O)Nc4ccc(F)cc4F)ccc23)ccn1 ?
Response given: -1
